test system: Mycobacterium tuberculosis; experiment: Antitubercular activity against non-replicating Mycobacterium tuberculosis H37Rv expressing vibrio harveyii luciferase gene incubated 10 days under anaerobic condition measured after 28 hrs of recovery in aerobic condition by luciferase based low oxygen recovery assay
Measured Attribute: MIC90 (µM)
Please state the figure in µM; there is no need to write the unit.

A selection of reference data follows.
COc1cccc(CNC(=O)c2c(C)nc3cc(C)ccn23)c1
31.4
Cc1ccn2c(C(=O)NCc3ccc(Cl)cc3)c(C)nc2c1
28
Cc1ccn2c(C(=O)NCc3cccc(F)c3)c(C)nc2c1
40.1
Cc1ccn2c(C(=O)NCc3ccccc3)c(C)nc2c1
53.6
O=[N+]([O-])c1cn2c(n1)OC[C@@H](OCc1ccc(OC(F)(F)F)cc1)C2
4.9

In the following, a different molecule is considered.
Look up MIC90: "COc1ccc(CNC(=O)c2c(C)nc3cc(C)ccn23)cc1"
10.5

* * *

Tmax reference
assay: in vivo; conditions: Sprague-Dawley, rat, po, 10 mg/kg
Please state the figure in min; there is no need to write the unit.

A selection of reference data follows.
Cc1ccn2c(C(=O)NCc3ccccc3)c(C)nc2c1
15
COc1cccc(CNC(=O)c2c(C)nc3cc(C)ccn23)c1
15
Cc1ccn2c(C(=O)NCc3ccc(Cl)cc3)c(C)nc2c1
18.6

Look up Tmax: "COc1ccc(CNC(=O)c2c(C)nc3cc(C)ccn23)cc1"
15

* * *

assay: Cmax in Sprague-Dawley rat at 10 mg/kg, po; assay type: ADME, organism-based; design: dose 10 mg/kg, route oral; details: in vivo
Measured Attribute: Cmax (ng/mL)
Please state the figure in ng/mL; there is no need to write the unit.

A selection of reference data follows.
Cc1ccn2c(C(=O)NCc3ccc(Cl)cc3)c(C)nc2c1
2000
Cc1ccn2c(C(=O)NCc3ccccc3)c(C)nc2c1
3010
COc1cccc(CNC(=O)c2c(C)nc3cc(C)ccn23)c1
3140

Look up Cmax: "COc1ccc(CNC(=O)c2c(C)nc3cc(C)ccn23)cc1"
5740

* * *

experiment: Clearance in Sprague-Dawley rat at 1 mg/kg, iv; type: ADME, organism-based; design: dose 1 mg/kg, route intravenous; details: in vivo
Measured Attribute: clearance (mL/min/kg)
Please state the figure in mL/min/kg; there is no need to write the unit.

A selection of reference data follows.
Cc1ccn2c(C(=O)NCc3ccc(Cl)cc3)c(C)nc2c1
51
Cc1ccn2c(C(=O)NCc3ccccc3)c(C)nc2c1
91
COc1cccc(CNC(=O)c2c(C)nc3cc(C)ccn23)c1
43

In the following, a different molecule is considered.
Look up clearance: "COc1ccc(CNC(=O)c2c(C)nc3cc(C)ccn23)cc1"
28

* * *

assay: Drug metabolism in rat liver microsomes at 1 mM after 30 mins by LC/MS analysis; assay type: ADME, Microsome; conditions: read-out: Drug metabolism
Measured Attribute: metabolised at 0.5 h (%)
Please state the figure in %; there is no need to write the unit.

Look up metabolised at 0.5 h: "COc1cccc(CNC(=O)c2c(C)nc3cc(C)ccn23)c1"
80

* * *

assay: Drug metabolism in human liver microsomes at 1 mM after 30 mins by LC/MS analysis; type: ADME, Microsome; conditions: read-out: Drug metabolism
metabolised at 0.5 h reference
Please state the figure in %; there is no need to write the unit.

A selection of reference data follows.
COc1cccc(CNC(=O)c2c(C)nc3cc(C)ccn23)c1
47
COc1ccc(CNC(=O)c2c(C)nc3cc(C)ccn23)cc1
30
Cc1ccn2c(C(=O)NCc3ccc(Cl)cc3)c(C)nc2c1
82

Look up metabolised at 0.5 h: "Cc1ccn2c(C(=O)NCc3ccccc3)c(C)nc2c1"
59

* * *

half-life reference
assay: Half life in Sprague-Dawley rat at 1 mg/kg, iv; assay type: ADME, organism-based; set-up: dose 1 mg/kg, route intravenous; details: in vivo
Please state the figure in min; there is no need to write the unit.

COc1ccc(CNC(=O)c2c(C)nc3cc(C)ccn23)cc1
16.8

Look up half-life: "Cc1ccn2c(C(=O)NCc3ccc(Cl)cc3)c(C)nc2c1"
24

Look up half-life: "Cc1ccn2c(C(=O)NCc3ccccc3)c(C)nc2c1"
21

Look up half-life: "COc1cccc(CNC(=O)c2c(C)nc3cc(C)ccn23)c1"
19.8

* * *

assay: Aqueous solubility of the compound in PBS buffer at pH 7.4; assay type: physicochemical
solubility reference
Please state the figure in µM; there is no need to write the unit.

COc1cccc(CNC(=O)c2c(C)nc3cc(C)ccn23)c1
149

Look up solubility: "COc1ccc(CNC(=O)c2c(C)nc3cc(C)ccn23)cc1"
148

Look up solubility: "Cc1ccn2c(C(=O)NCc3ccc(Cl)cc3)c(C)nc2c1"
25

Look up solubility: "Cc1ccn2c(C(=O)NCc3ccccc3)c(C)nc2c1"
181

* * *

metabolised at 0.5 h reference
assay: Drug metabolism in rat liver microsomes at 1 mM after 30 mins by LC/MS analysis; assay type: ADME, Microsome; conditions: read-out: Drug metabolism
Please state the figure in %; there is no need to write the unit.

Cc1ccn2c(C(=O)NCc3ccc(Cl)cc3)c(C)nc2c1
79
COc1ccc(CNC(=O)c2c(C)nc3cc(C)ccn23)cc1
69

Look up metabolised at 0.5 h: "Cc1ccn2c(C(=O)NCc3ccccc3)c(C)nc2c1"
71
